Entries and their Foxtail, Giant plant response rating
# Tested on: foxtail, giant (giant foxtail, Setaria faberii)
# measurement-notes: Test A pre-/postemergence: foxtail, giant
# Assay type: in vivo
# recorded-conditions: Postemergence, 125 g ai/ha; 0 to 100 scale, 0 is no effect, 100 is complete control
Could you respond with only the numeric value?

The observed Foxtail, Giant plant response rating for `Cc1nn(-c2ccccc2I)nc1C(=O)c1cccc(C(F)(F)F)c1` when tested with foxtail, giant (giant foxtail, Setaria faberii) stands at 0

The observed Foxtail, Giant plant response rating for `Cc1nn(-c2ccc(F)c(C(F)(F)F)c2)nc1Oc1ccnc(C(F)(F)F)c1` when tested with foxtail, giant (giant foxtail, Setaria faberii) stands at 70

The observed Foxtail, Giant plant response rating for `Cc1nn(-c2ccc(C(F)(F)F)cn2)nc1Cn1ccc(C(F)(F)F)n1` when tested with foxtail, giant (giant foxtail, Setaria faberii) stands at 50

The observed Foxtail, Giant plant response rating for `COc1nn(-c2ccc(F)cc2)nc1Oc1ccnc(C(F)(F)F)c1` when tested with foxtail, giant (giant foxtail, Setaria faberii) stands at 20

The observed Foxtail, Giant plant response rating for `Cc1nn(-c2ccnc(Cl)c2)nc1C(=O)c1cccc(C(F)(F)F)c1` when tested with foxtail, giant (giant foxtail, Setaria faberii) stands at 20

The observed Foxtail, Giant plant response rating for `Cc1nn(-c2cnc(Cl)cn2)nc1C(=O)c1cccc(C(F)(F)F)c1` when tested with foxtail, giant (giant foxtail, Setaria faberii) stands at 0
